Target: Recombinant mouse FAP (Mus musculus, UniProt P97321)
Construct: purchased R&D systems 8647-SE
Sequence (P97321 whole entry): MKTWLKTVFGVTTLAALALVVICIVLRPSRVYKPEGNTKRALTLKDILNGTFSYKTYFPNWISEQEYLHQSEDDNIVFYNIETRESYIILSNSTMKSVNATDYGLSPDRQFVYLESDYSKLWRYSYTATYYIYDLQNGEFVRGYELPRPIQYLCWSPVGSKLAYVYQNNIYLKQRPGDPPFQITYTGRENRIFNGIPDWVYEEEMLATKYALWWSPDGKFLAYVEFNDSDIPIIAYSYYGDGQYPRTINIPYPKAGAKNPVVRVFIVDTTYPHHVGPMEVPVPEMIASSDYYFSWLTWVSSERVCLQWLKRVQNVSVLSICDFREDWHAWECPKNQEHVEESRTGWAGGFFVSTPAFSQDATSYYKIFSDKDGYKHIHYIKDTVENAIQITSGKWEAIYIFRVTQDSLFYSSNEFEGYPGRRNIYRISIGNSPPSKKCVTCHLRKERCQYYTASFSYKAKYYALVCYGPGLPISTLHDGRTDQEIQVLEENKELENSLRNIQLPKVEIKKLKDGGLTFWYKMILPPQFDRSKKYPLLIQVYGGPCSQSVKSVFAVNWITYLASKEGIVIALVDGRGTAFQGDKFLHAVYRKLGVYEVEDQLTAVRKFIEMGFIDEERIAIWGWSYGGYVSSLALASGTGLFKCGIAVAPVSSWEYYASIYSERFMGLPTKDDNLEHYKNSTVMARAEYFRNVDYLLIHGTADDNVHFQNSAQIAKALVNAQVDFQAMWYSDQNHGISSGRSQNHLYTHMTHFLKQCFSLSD
Assay: FRET-based FAP protease activity assay (mouse)
Type: biochemical
Conditions: FRET-peptide substrate, 37°C
Task for the reader: assign each of the following molecules its reported pIC50 (mouseFAP).
One number for each entry.

# Molecule, Recorded Metric, Experimental Result
rows = [
    ("O=C(O)CN1CCN(CC(=O)O)CCN(CC(=O)N2CCN(CCCOc3ccc4nccc(C(=O)NCC(=O)N5CC(F)(F)C[C@H]5C(=O)c5nc6ccccc6o5)c4c3)CC2)CCN(CC(=O)O)CC1", "pIC50 (mouseFAP)", 8.3),
    ("N#C[C@@H]1CC(F)(F)CN1C(=O)CNC(=O)c1ccnc2ccc(OCCCN3CCN(C(=O)CN4CCN(CC(=O)O)CCN(CC(=O)O)CCN(CC(=O)O)CC4)CC3)cc12 [drawing 287]", "pIC50 (mouseFAP)", 8.8),
]

I would be grateful if you could provide pIC50 (mouseFAP) for each of the following entries.
1. N#C[C@@H]1CCCN1C(=O)CNC(=O)c1ccnc2ccc(-c3ccc(C(=O)NCCCN(CC(=O)O)C(=O)CN4CCN(CC(=O)O)CCN(CC(=O)O)CCN(CC(=O)O)CC4)cc3)cc12
2. O=C(O)CN1CCN(CC(=O)O)CCN(CC(=O)N2CCN(CCNC(=O)c3ccc(-c4ccc5c(C(=O)NCC(=O)N6CCC[C@H]6C(=O)c6nc7ccccc7o6)ccnc5c4)cc3)CC2)CCN(CC(=O)O)CC1 [drawing 355]
3. N#C[C@@H]1CC(F)(F)CN1C(=O)CNC(=O)c1cc[n+]([O-])c2ccc(OCCCN3CCN(C(=O)CN4CCN(CC(=O)O)CCN(CC(=O)O)CCN(CC(=O)O)CC4)CC3)cc12
4. N#C[C@@H]1CC(F)(F)CN1C(=O)CNC(=O)c1cc[n+]([O-])c2ccc(-c3ccc(S(=O)(=O)CCCNC(=O)CN4CCN(CC(=O)O)CCN(CC(=O)O)CCN(CC(=O)O)CC4)cc3)cc12
5. O=C(O)CN1CCN(CC(=O)O)CCN(CC(=O)N2CCN(CCNC(=O)c3ccc(-c4ccc5nccc(C(=O)NCC(=O)N6CCC[C@H]6C(=O)c6nc7ccccc7o6)c5c4)cc3)CC2)CCN(CC(=O)O)CC1 [drawing 354]

Result:
1: 8.9; 2: 8.8; 3: 8.8; 4: 9.1; 5: 8.1

Request: # pIC50 (mouseFAP) lookup, item O=C(O)CN1CCN(CC(=O)O)CCN(CC(=O)N2CCN(CCNC(=O)c3ccc(-c4ccc5nccc(C(=O)NCC(=O)N6CCC[C@H]6C(=O)c6nc7ccccc7o6)c5c4)cn3)CC2)CCN(CC(=O)O)CC1 [drawing 361]
Result: 7.8

----------
Target: Human recombinant FAP (Homo sapiens, UniProt Q12884)
Sequence (Q12884 1-760): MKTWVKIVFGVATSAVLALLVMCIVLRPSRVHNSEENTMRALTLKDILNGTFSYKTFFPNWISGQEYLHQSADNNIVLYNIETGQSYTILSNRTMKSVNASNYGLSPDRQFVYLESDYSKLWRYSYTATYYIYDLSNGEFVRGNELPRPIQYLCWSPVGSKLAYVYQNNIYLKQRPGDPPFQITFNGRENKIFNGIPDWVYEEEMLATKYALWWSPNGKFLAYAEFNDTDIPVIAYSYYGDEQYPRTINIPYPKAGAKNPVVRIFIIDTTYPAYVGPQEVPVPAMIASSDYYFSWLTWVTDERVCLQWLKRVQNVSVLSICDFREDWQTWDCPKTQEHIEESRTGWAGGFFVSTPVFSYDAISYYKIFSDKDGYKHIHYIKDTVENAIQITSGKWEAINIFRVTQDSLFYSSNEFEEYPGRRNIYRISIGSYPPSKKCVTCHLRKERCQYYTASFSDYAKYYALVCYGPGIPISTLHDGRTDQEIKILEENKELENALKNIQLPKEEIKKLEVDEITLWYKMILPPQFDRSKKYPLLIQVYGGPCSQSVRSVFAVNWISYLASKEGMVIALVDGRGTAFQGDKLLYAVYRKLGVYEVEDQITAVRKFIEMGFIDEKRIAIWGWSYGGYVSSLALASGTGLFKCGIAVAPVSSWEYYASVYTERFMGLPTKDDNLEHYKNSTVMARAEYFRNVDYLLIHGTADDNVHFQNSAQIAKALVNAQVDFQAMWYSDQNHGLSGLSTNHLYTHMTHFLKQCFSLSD
Assay: Surface plasmon resonance assay (Biacore T200, single cycle kinetics)
Format: binding
Conditions: SPR, half-life, 25°C
Classification field: enter satisfied for HL [min] (Biacore) values not below 30 min, not satisfied for values below it.

# Compound, Label
rows = [
    ("O=C(O)CN1CCN(CC(=O)O)CCN(CC(=O)N2CCN(CCNC(=O)c3ccc(-c4ccc5nccc(C(=O)NCC(=O)N6C[C@@H](F)C[C@H]6C(=O)c6nc7ccccc7o6)c5c4)cc3)CC2)CCN(CC(=O)O)CC1 [drawing 360]", "not satisfied"),
    ("N#C[C@@H]1CC(F)(F)CN1C(=O)CNC(=O)c1ccnc2ccccc12", "not satisfied"),
    ("N#C[C@@H]1CCCN1C(=O)CNC(=O)c1ccnc2ccc(-n3cc(C(=O)NCCCNC(=O)CN4CCN(CC(=O)O)CCN(CC(=O)O)CCN(CC(=O)O)CC4)nn3)cc12", "satisfied"),
    ("N#C[C@@H]1CCCN1C(=O)CNC(=O)c1ccnc2ccc(-c3ccc(C(=O)NCCCNC(=O)CN4CCN(CC(=O)O)CCN(CC(=O)O)CCN(CC(=O)O)CC4)cc3)cc12", "satisfied"),
    ("CN(CCCN1CCN(C(=O)CN2CCN(CC(=O)O)CCN(CC(=O)O)CCN(CC(=O)O)CC2)CC1)c1ccc2nccc(C(=O)NCC(=O)N3CC(F)(F)C[C@H]3C#N)c2c1", "satisfied"),
    ("CS(=O)(=O)c1cccc(-c2ccc3nccc(C(=O)NCC(=O)N4CCC[C@H]4C#N)c3c2)c1", "not satisfied"),
]

Request: Please tell me: is the compound CC(C)(C)c1nnc(C(=O)[C@@H]2CCCN2C(=O)CNC(=O)c2ccnc3ccccc23)o1 at or over 30 min in terms of HL [min] (Biacore)?
Result: not satisfied

Request: Please tell me: is the compound O=C(O)CN1CCN(CC(=O)O)CCN(CC(=O)N2CCN(CCNC(=O)c3cccc(-c4ccc5nccc(C(=O)NCC(=O)N6CCC[C@H]6C(=O)c6nc7ccccc7o6)c5c4)c3)CC2)CCN(CC(=O)O)CC1 [drawing 353] at or over 30 min in terms of HL [min] (Biacore)?
Result: satisfied

Request: Please tell me: is the compound N#C[C@@H]1CC(F)(F)CN1C(=O)CNC(=O)c1ccnc2ccc(-c3ccc(C(=O)NCCN4CCN(C(=O)CN5CCN(CC(=O)O)CCN(CC(=O)O)CCN(CC(=O)O)CC5)CC4)cc3)cc12 at or over 30 min in terms of HL [min] (Biacore)?
Result: satisfied

Request: Please tell me: is the compound CS(=O)(=O)c1ccc(-c2ccc3nccc(C(=O)NCC(=O)N4CC(F)(F)C[C@H]4C#N)c3c2)c(CO)c1 at or over 30 min in terms of HL [min] (Biacore)?
Result: satisfied

Request: Please tell me: is the compound N#C[C@@H]1CC(F)(F)CN1C(=O)CNC(=O)c1ccnc2ccc(-c3ccc(C(=O)NCCN4CCN(C(=O)CN5CCN(CC(=O)O)CCN(CC(=O)O)CCN(CC(=O)O)CC5)CC4)nc3)cc12 at or over 30 min in terms of HL [min] (Biacore)?
Result: satisfied
